# assayTarget: human D2R/β-arrestin (Homo sapiens (Human), UniProt P14416)
# Sequence (P14416 whole entry): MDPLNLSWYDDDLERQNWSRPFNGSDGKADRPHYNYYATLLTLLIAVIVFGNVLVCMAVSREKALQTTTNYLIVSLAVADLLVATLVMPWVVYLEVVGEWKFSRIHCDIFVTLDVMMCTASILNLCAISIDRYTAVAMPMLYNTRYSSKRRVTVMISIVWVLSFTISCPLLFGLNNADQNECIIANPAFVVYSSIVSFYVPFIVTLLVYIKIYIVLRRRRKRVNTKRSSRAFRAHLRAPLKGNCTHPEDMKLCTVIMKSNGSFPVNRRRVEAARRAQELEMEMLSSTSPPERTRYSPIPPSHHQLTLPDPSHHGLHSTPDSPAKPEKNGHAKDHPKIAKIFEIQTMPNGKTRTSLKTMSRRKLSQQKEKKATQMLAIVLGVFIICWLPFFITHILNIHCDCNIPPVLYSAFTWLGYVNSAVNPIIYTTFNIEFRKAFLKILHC
# experimentalContext: read-out: cAMP Antagonist
pIC50: −log10 of the molar value.
molecules and their reported pIC50

The cases that follow already have their pIC50 on record.
Exercise: Return reported pIC50. Input molecule: O=C(NC(c1ccc2c(c1)OCO2)c1ccccn1)C1CCN(CCOc2ccccc2F)CC1 (single isomer, unassigned) [Compound 95b]
Solution: 6.00 to 7.00

Exercise: Return reported pIC50. Input molecule: O=C(NC(c1ccc(Cl)cc1)c1ccccc1F)C1CCN(CCOc2ccccc2)CC1 (single isomer, unassigned) [Compound 40b]
Solution: < 4.52

Note: attention shifts to another entry.
Exercise: Return reported pIC50. Input molecule: O=C(NC(c1ccc2c(c1)OCO2)c1ccccn1)C1CCN(CCOc2ccccc2F)CC1 (single isomer, unassigned) [Compound 95a]
Solution: 6.00 to 7.00

Taken from patent US10752588B2.
